B1: Pistol ribozyme (parent)
chain: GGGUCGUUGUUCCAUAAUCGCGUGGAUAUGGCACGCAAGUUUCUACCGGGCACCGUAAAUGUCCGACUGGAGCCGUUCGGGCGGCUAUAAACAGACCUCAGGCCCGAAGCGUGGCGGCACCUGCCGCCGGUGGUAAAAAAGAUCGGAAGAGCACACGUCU

variants of: B1; assay: aptazyme ON/OFF ratio, guanine; higher = stronger switching; co-transcriptional cleavage with and without guanine
# maps each entry to its aptazyme ON/OFF ratio
API doc: respond with a numeric literal and nothing else, no unit.

| residue change | aptazyme ON/OFF ratio |
| --- | --- |
| U7A G9C U10C U11G | 1.02 |
| U7C U10A U11A C13U | 1.19 |
| U8C G9A U10C U11C C12U C13G | 1.03 |
| U7G U8C G9U U11G C12U | 1.55 |

As a next step, examine the variant that follows.
Task: I'd like to know its aptazyme ON/OFF ratio. The variant in question is U8G G9U U10G U11A C12G C13G
Output: 1.17
